Molecular target: Ubiquitin carboxyl-terminal hydrolase 8 (Homo sapiens, UniProt P40818)
Sequence (P40818 whole entry): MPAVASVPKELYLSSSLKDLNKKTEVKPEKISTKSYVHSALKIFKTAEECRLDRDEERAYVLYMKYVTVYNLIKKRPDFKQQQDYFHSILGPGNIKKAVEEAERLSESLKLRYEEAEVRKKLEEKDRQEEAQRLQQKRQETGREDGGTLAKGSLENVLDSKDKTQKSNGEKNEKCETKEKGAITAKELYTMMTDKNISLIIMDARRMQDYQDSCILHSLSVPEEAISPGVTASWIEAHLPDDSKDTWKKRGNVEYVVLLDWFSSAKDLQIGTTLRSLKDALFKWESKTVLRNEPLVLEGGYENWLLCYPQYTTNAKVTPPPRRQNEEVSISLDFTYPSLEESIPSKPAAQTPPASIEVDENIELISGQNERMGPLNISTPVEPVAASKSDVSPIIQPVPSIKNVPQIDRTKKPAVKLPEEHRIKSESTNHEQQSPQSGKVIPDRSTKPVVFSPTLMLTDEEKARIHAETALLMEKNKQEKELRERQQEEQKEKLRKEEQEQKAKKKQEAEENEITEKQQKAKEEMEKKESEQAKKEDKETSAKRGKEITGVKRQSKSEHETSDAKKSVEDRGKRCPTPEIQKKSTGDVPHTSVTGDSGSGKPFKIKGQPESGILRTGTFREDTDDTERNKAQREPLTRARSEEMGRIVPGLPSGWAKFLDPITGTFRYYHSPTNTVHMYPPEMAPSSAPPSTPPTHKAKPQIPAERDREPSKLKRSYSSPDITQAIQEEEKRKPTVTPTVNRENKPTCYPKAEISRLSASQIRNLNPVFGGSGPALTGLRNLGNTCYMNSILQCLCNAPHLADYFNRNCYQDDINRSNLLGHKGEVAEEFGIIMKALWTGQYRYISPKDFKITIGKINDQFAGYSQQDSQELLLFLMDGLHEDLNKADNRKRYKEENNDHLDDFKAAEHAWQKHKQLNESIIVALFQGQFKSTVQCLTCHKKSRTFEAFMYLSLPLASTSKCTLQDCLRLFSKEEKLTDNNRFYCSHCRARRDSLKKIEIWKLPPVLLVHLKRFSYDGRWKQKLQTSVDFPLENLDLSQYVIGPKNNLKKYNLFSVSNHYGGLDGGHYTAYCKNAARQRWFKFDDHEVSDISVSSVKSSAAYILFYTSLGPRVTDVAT
Experiment: Inhibition of USP8 (unknown origin)
QUANTITY_MEASURED: EC50 (µM)
Give the value, in units of µM, as a plain number.

Q: Entry `N#CSc1cc(SC#N)c(N)nc1N` has what EC50?
Ans: 4.9

Data origin, for the record: ChEMBL document CHEMBL5226343
